Sourced from ChEMBL document CHEMBL3351736

# assay_notes: Effective permeability from basolateral to apical side in human Caco2 cells at 50 uM after 15 to 90 mins by HPLC analysis in presence of sodium azide
# Type: ADME, cell-based
# measurement_setup: Caco-2, with sodium azide, read-out: Peff

| smiles | Papp B→A at 50 µM |
| --- | --- |
| CC[C@@]1(O)C(=O)OCc2c1cc1n(c2=O)Cc2cc3c4c(ccc3nc2-1)OCOC4 | 9.73 ×10⁻⁶ cm/s |

###

Below: a set of entries, each annotated with reported Papp at 5 min, 50 µM.
# assay_notes: Effective permeability in Wistar rat small intestine at 50 uM measured after 5 mins in every 5 min interval up to 30 mins
# Type: ADME, tissue-based
# measurement_setup: not told, read-out: Peff

| molecule | Papp at 5 min, 50 µM [×10⁻⁶ cm/s] |
| --- | --- |
| CC[C@@]1(O)C(=O)OCc2c1cc1n(c2=O)Cc2cc3c(CN(C)C)c(O)ccc3nc2-1.Cl [TOPOTECAN HYDROCHLORIDE] | 55.8 |
| CC[C@@]1(O)C(=O)OCc2c1cc1n(c2=O)Cc2cc3c4c(ccc3nc2-1)OCOC4 | 93.8 |
| COCCc1ccc(OCC(O)CNC(C)C)cc1 (centres undefined) [METOPROLOL] | 55.3 |
| CC[C@@]1(O)C(=O)OCc2c1cc1n(c2=O)Cc2cc3ccccc3nc2-1 [CAMPTOTHECIN] | 74.8 |

###

Below: a set of entries, each annotated with reported Papp A→B at 50 µM.
# assay_notes: Effective permeability from apical to basolateral side in human Caco2 cells at 50 uM after 15 to 90 mins by HPLC analysis
# Assay type: ADME, cell-based
# measurement_setup: Caco-2, read-out: Peff

| compound | Papp A→B at 50 µM [×10⁻⁶ cm/s] |
| --- | --- |
| CC[C@@]1(O)C(=O)OCc2c1cc1n(c2=O)Cc2cc3c4c(ccc3nc2-1)OCOC4 | 10 |
| CC[C@@]1(O)C(=O)OCc2c1cc1n(c2=O)Cc2cc3ccccc3nc2-1 | 7.88 |
| COCCc1ccc(OCC(O)CNC(C)C)cc1 (centres undefined) | 23 |
| CC[C@@]1(O)C(=O)OCc2c1cc1n(c2=O)Cc2cc3c(CN(C)C)c(O)ccc3nc2-1.Cl [TOPOTECAN HYDROCHLORIDE] | 1.77 |

###

# System: Jurkat
# assay_notes: Cytotoxicity against human Jurkat cells after 24 hrs by MTT assay
# Type: functional, cell-based
pIC50: −log10 of the molar value.

| compound | pIC50 |
| --- | --- |
| CC[C@@]1(O)C(=O)OCc2c1cc1n(c2=O)Cc2cc3c(CN(C)C)c(O)ccc3nc2-1.Cl [TOPOTECAN HYDROCHLORIDE] | 6.90 |
| CC[C@@]1(O)C(=O)OCc2c1cc1n(c2=O)Cc2cc3c([N+](=O)[O-])cccc3nc2-1 [RUBITECAN] | 6.89 |
| CC[C@@]1(O)C(=O)OCc2c1cc1n(c2=O)Cc2cc3ccccc3nc2-1 [CAMPTOTHECIN] | 6.96 |
| CC[C@@]1(O)C(=O)OCc2c1cc1n(c2=O)Cc2cc3c4c(ccc3nc2-1)OCOC4 | 6.91 |
